# tested.system: human serum albumin (HSA) (Homo sapiens, UniProt P02768)
# Sequence (P02768 25-609): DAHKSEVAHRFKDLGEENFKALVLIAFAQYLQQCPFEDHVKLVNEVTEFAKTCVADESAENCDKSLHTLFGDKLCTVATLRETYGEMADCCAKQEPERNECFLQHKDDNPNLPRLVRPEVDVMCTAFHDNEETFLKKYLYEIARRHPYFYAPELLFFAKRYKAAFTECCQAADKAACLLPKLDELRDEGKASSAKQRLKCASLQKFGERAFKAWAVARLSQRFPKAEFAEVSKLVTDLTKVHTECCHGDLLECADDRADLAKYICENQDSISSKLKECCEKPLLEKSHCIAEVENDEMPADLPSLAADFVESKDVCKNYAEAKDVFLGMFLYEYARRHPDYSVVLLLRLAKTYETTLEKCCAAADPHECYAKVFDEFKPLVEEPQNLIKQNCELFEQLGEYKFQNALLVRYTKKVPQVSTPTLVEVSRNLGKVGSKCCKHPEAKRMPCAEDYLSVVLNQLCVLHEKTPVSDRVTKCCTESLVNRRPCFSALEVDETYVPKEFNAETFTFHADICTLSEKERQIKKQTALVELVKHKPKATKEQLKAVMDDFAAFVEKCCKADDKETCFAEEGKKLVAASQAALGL
# protocol.summary: Binding of nucleotides to human serum albumin by native ESI-FT-ICR MS
The following molecules are listed with their measured pKd values.
Convention used: pKd is expressed as -log10 of the molar concentration.

molecule="O=c1ccn([C@@H]2O[C@H](COP(=O)(O)OP(=O)(O)OP(=O)(O)O)[C@@H](O)[C@H]2O)c(=O)[nH]1 [UTP, uridine triphosphate]" value_observed=5.17

Identify measured pKd corresponding to Nc1ncnc2c1ncn2[C@@H]1O[C@H](COP(=O)(O)OP(=O)(O)OP(=O)(O)O)[C@@H](O)[C@H]1O [ATP, Adenosine triphosphate]
6.33
